Target: Mu-type opioid receptor (Mus musculus)
Sequence (P42866 whole entry): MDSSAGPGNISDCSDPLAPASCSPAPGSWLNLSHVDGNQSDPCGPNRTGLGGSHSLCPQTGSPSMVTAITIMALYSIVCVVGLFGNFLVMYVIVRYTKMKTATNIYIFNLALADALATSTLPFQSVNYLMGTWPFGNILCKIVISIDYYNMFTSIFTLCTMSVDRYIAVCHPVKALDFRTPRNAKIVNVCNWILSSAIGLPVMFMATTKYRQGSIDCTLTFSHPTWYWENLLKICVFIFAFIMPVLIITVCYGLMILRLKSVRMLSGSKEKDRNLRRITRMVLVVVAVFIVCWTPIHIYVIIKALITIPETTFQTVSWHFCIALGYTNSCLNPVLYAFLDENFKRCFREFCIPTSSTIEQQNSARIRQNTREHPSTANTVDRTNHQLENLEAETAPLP
Test: Binding affinity to mouse mu opioid receptor expressed in CHO cell membrane assessed as inhibition constant incubated for 1.5 hrs by competitive radioligand binding assay
Assay type: cell membranes
Reported endpoint: pKi
Answers are plain numbers, as −log10 of the molar value.

# input compound: `O=C(N[C@H]1CC[C@@]2(O)[C@H]3Cc4ccc(O)c5c4[C@@]2(CCN3CC2CC2)[C@H]1O5)c1cccc2c(Br)c[nH]c12` ; wanted: its pKi 9.03

Quick check: pKi of `Cc1cc2cccc(C(=O)N[C@H]3CC[C@@]4(O)[C@H]5Cc6ccc(O)c7c6[C@@]4(CCN5CC4CC4)[C@H]3O7)c2[nH]1.Cl` ? 9.23

Look up pKi for this compound: `O=Cc1c[nH]c2c(C(=O)N[C@@H]3CC[C@@]4(O)[C@H]5Cc6ccc(O)c7c6[C@@]4(CCN5CC4CC4)[C@H]3O7)cccc12` 9.16

Endpoint output: pKi of `O=C(N[C@H]1CC[C@@]2(O)[C@H]3Cc4ccc(O)c5c4[C@@]2(CCN3CC2CC2)[C@H]1O5)c1cccc2c([N+](=O)[O-])c[nH]c12` . Value? 8.97

Alright, here's another compound for you.
Return reported pKi; argument: `O=C(N[C@@H]1CC[C@@]2(O)[C@H]3Cc4ccc(O)c5c4[C@@]2(CCN3CC2CC2)[C@H]1O5)c1cccc2cc(Cl)[nH]c12` 9.20

* * *

System: Mus musculus
Assay: Antinociceptive activity in Swiss Webster mouse assessed as inhibition of morphine induced latency to tail withdrawal at 10 mg/kg, sc preincubated for 5 mins followed by morphine addition and measured after 20 mins by warm water tail immersion assay
Format: functional, organism-based
Settings: time 25.0 min
The source made the active and inactive calls. The calls are words filed in the database; no cut-off is given here.
In this exercise, the only acceptable responses are Y (active), N (inactive)

# fetch the recorded call for `N#Cc1c[nH]c2c(C(=O)N[C@@H]3CC[C@@]4(O)[C@H]5Cc6ccc(O)c7c6[C@@]4(CCN5CC4CC4)[C@H]3O7)cccc12` here N

Hey, what did the test say about `Cc1c[nH]c2c(C(=O)N[C@H]3CC[C@@]4(O)[C@H]5Cc6ccc(O)c7c6[C@@]4(CCN5CC4CC4)[C@H]3O7)cccc12` ? Y

Which outcome was entered for the compound `O=C(N[C@H]1CC[C@@]2(O)[C@H]3Cc4ccc(O)c5c4[C@@]2(CCN3CC2CC2)[C@H]1O5)c1cccc2c([N+](=O)[O-])c[nH]c12` in this test? N

* * *

Test system: Mus musculus
Test: Antinociceptive activity in Swiss Webster mouse assessed as inhibition of morphine induced latency to tail withdrawal at 10 mg/kg, sc preincubated for 5 mins followed by morphine addition and measured after 20 mins by warm water tail immersion assay
Format: functional, organism-based
Settings: time 25.0 min
The source made the active and inactive calls. The calls are words filed in the database; no cut-off is given here.
Can you answer with just one of these options? active, inactive

Field: outcome | Entry: `O=C(N[C@H]1CC[C@@]2(O)[C@H]3Cc4ccc(O)c5c4[C@@]2(CCN3CC2CC2)[C@H]1O5)c1cccc2c(C3CCCCC3)c[nH]c12` inactive

Which outcome did this test record for the molecule `CC(=O)c1c[nH]c2c(C(=O)N[C@@H]3CC[C@@]4(O)[C@H]5Cc6ccc(O)c7c6[C@@]4(CCN5CC4CC4)[C@H]3O7)cccc12` ? inactive

Look up the recorded call for `N#Cc1cc2cccc(C(=O)N[C@H]3CC[C@@]4(O)[C@H]5Cc6ccc(O)c7c6[C@@]4(CCN5CC4CC4)[C@H]3O7)c2[nH]1` in this test. inactive

What is the recorded call for this molecule in the test? `CC(=O)Nc1c[nH]c2c(C(=O)N[C@@H]3CC[C@@]4(O)[C@H]5Cc6ccc(O)c7c6[C@@]4(CCN5CC4CC4)[C@H]3O7)cccc12` inactive

# lookup: test call for `O=C(N[C@H]1CC[C@@]2(O)[C@H]3Cc4ccc(O)c5c4[C@@]2(CCN3CC2CC2)[C@H]1O5)c1cccc2cc(Br)[nH]c12` active

***
# fetch the recorded call for `CC(=O)Nc1c[nH]c2c(C(=O)N[C@H]3CC[C@@]4(O)[C@H]5Cc6ccc(O)c7c6[C@@]4(CCN5CC4CC4)[C@H]3O7)cccc12` here inactive

Called result for `N#Cc1c[nH]c2c(C(=O)N[C@H]3CC[C@@]4(O)[C@H]5Cc6ccc(O)c7c6[C@@]4(CCN5CC4CC4)[C@H]3O7)cccc12` inactive

Short answer needed: outcome of this test for `O=Cc1c[nH]c2c(C(=O)N[C@@H]3CC[C@@]4(O)[C@H]5Cc6ccc(O)c7c6[C@@]4(CCN5CC4CC4)[C@H]3O7)cccc12` ? inactive

* * *

Kindly supply the reported pEC50 values for the records listed here.
Molecular target: UniProt P42866
Assay: Binding affinity to mouse mu opioid receptor expressed in CHO cell membrane assessed as [35S]GTPgammaS binding incubated for 1.5 hrs by liquid scintillation counter analysis
Answers are plain numbers, as −log10 of the molar value.

Value lookup for pEC50; key = `Cc1cc2cccc(C(=O)N[C@@H]3CC[C@@]4(O)[C@H]5Cc6ccc(O)c7c6[C@@]4(CCN5CC4CC4)[C@H]3O7)c2[nH]1` 8.82

Give one value of pEC50 per listed molecule.
1. O=Cc1c[nH]c2c(C(=O)N[C@H]3CC[C@@]4(O)[C@H]5Cc6ccc(O)c7c6[C@@]4(CCN5CC4CC4)[C@H]3O7)cccc12
2. O=C(N[C@@H]1CC[C@@]2(O)[C@H]3Cc4ccc(O)c5c4[C@@]2(CCN3CC2CC2)[C@H]1O5)c1cccc2cc(Br)[nH]c12
3. O=C(N[C@H]1CC[C@@]2(O)[C@H]3Cc4ccc(O)c5c4[C@@]2(CCN3CC2CC2)[C@H]1O5)c1cccc2c(Cl)c[nH]c12
4. Cc1c[nH]c2c(C(=O)N[C@@H]3CC[C@@]4(O)[C@H]5Cc6ccc(O)c7c6[C@@]4(CCN5CC4CC4)[C@H]3O7)cccc12

1: 9.05; 2: 9.06; 3: 8.44; 4: 8.91

Could you tell me pEC50 for each of these molecules? They are listed below.
1. O=C(N[C@H]1CC[C@@]2(O)[C@H]3Cc4ccc(O)c5c4[C@@]2(CCN3CC2CC2)[C@H]1O5)c1cccc2cc(-c3ccccc3)[nH]c12
2. CC(=O)Nc1c[nH]c2c(C(=O)N[C@@H]3CC[C@@]4(O)[C@H]5Cc6ccc(O)c7c6[C@@]4(CCN5CC4CC4)[C@H]3O7)cccc12

[8.68, 9.06]

* * *

// each record: one item and its Ki for Mu-type opioid receptor (Mus musculus, UniProt P42866)
Answers are plain numbers, in nM.

Sample `CC(C)c1c[nH]c2c(C(=O)N[C@@H]3CC[C@@]4(O)[C@H]5Cc6ccc(O)c7c6[C@@]4(CCN5CC4CC4)[C@H]3O7)cccc12` — what was its Ki? 0.89

Give its Ki value. Item: `Cc1c[nH]c2c(C(=O)N[C@@H]3CC[C@@]4(O)[C@H]5Cc6ccc(O)c7c6[C@@]4(CCN5CC4CC4)[C@H]3O7)cccc12` 0.46

Give the measured Ki of `O=C(N[C@H]1CC[C@@]2(O)[C@H]3Cc4ccc(O)c5c4[C@@]2(CCN3CC2CC2)[C@H]1O5)c1cccc2c(C3CCCCC3)c[nH]c12` . 2.11

We now examine a further molecule.
What Ki value was documented for this molecule, `O=C(N[C@H]1CC[C@@]2(O)[C@H]3Cc4ccc(O)c5c4[C@@]2(CCN3CC2CC2)[C@H]1O5)c1cccc2c(C3CCCC3)c[nH]c12` ? 2.66

* * *

Target: Mu-type opioid receptor (Mus musculus) (UniProt P42866)
Assay: Binding affinity to mouse mu opioid receptor expressed in CHO cell membrane assessed as stimulation of [35S]-GTPgammaS binding by measuring maximal efficacy incubated for 1.5 hrs by scintillation spectroscopy analysis relative DAMGO
Type: cell membranes
Record form. Attribute: Emax. Fill in for each entry.
Give bare numbers, in %.

Emax of `O=C(N[C@H]1CC[C@@]2(O)[C@H]3Cc4ccc(O)c5c4[C@@]2(CCN3CC2CC2)[C@H]1O5)c1cccc2cc[nH]c12` on Mu-type opioid receptor (Mus musculus) (UniProt P42866)? 19.1

Report Emax for `CC(C)c1c[nH]c2c(C(=O)N[C@@H]3CC[C@@]4(O)[C@H]5Cc6ccc(O)c7c6[C@@]4(CCN5CC4CC4)[C@H]3O7)cccc12` tested on Mu-type opioid receptor (Mus musculus) (UniProt P42866). 36.2

API: value(readout=Emax, system=Mu-type opioid receptor (Mus musculus) (UniProt P42866)) for record `N#Cc1c[nH]c2c(C(=O)N[C@@H]3CC[C@@]4(O)[C@H]5Cc6ccc(O)c7c6[C@@]4(CCN5CC4CC4)[C@H]3O7)cccc12` 38.8

Reported Emax for Mu-type opioid receptor (Mus musculus) (UniProt P42866), given `N#Cc1cc2cccc(C(=O)N[C@@H]3CC[C@@]4(O)[C@H]5Cc6ccc(O)c7c6[C@@]4(CCN5CC4CC4)[C@H]3O7)c2[nH]1` ? 21.3

Hi! Can you tell me Emax for each of these molecules?
1. O=Cc1c[nH]c2c(C(=O)N[C@H]3CC[C@@]4(O)[C@H]5Cc6ccc(O)c7c6[C@@]4(CCN5CC4CC4)[C@H]3O7)cccc12
2. O=C(N[C@H]1CC[C@@]2(O)[C@H]3Cc4ccc(O)c5c4[C@@]2(CCN3CC2CC2)[C@H]1O5)c1cccc2cc(Br)[nH]c12

1. 8.24
2. 13.3
